- study.system: USP28 (His-tagged USP28-FL-mammalian) (Homo sapiens)
- Construct: Expression of USP28 (1-1077)-TEV-6*His (pTT5 vector); made in house; host or cells: Expi293f cells (pTT5 vector)
- Sequence (Q96RU2 whole entry): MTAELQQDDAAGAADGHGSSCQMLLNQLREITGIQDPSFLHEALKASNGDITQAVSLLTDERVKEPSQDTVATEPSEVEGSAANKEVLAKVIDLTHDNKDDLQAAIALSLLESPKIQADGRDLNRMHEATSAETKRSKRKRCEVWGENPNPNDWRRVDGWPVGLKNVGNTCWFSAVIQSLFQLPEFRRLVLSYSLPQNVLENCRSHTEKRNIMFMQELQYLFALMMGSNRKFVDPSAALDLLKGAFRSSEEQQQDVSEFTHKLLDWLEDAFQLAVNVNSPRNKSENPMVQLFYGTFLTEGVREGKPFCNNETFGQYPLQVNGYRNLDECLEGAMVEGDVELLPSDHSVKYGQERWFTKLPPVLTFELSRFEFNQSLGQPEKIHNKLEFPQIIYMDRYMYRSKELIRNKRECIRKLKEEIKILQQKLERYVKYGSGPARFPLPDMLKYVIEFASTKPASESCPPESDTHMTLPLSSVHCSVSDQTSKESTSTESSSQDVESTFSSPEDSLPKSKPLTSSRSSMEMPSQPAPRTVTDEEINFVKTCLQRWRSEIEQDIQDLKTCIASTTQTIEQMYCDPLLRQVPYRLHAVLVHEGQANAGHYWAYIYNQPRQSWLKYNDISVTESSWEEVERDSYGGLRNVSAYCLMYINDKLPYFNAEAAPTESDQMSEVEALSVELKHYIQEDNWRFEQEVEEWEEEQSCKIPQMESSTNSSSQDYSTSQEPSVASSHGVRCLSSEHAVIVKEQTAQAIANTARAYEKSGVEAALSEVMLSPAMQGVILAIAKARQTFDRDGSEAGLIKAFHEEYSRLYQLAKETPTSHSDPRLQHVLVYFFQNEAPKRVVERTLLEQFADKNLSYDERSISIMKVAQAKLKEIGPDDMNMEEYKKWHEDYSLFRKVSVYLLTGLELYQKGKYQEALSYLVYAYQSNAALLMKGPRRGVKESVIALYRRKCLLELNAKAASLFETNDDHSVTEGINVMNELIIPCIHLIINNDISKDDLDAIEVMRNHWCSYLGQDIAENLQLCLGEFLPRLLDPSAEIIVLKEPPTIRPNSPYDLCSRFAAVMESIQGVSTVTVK
- experimental.protocol: Ubiquitin-Rhodamine 110 Assay for USP28 Activity, Example A-1(a)
- Format: biochemical
- experimental.setup: Ubiquitin-Rhodamine 110 assay, Example A-1(a); read-out: USP28 A-1(a) IC50 range
pIC50: −log10 of the molar value.
property.name: pIC50

Illustrative cases are given below, each with its answer.
molecule: COC[C@]1(C)CN(c2ccc3c(n2)CC[C@H](NC(=O)c2sc4nc(C)ccc4c2N)C3)C[C@H]1N
study.system: USP28 (His-tagged USP28-FL-mammalian) (Homo sapiens)
pIC50: 6.70 to 7.30

molecule: CO[C@@H]1CN(c2ccc3c(c2F)OC[C@H](NC(=O)c2sc4nc(C)ccc4c2N)C3)C[C@H]1N
study.system: USP28 (His-tagged USP28-FL-mammalian) (Homo sapiens)
pIC50: 6.70 to 7.30

molecule: CC(=O)N1CCCc2cc(C(=O)N[C@H]3COc4cc(N5CCNCC5)ccc4C3)ccc21
study.system: USP28 (His-tagged USP28-FL-mammalian) (Homo sapiens)
pIC50: < 5.70

molecule: CCO[C@H]1CN(c2ccc3c(c2)CC[C@H](NC(=O)c2sc4nc(C)ccc4c2N)C3)C[C@H]1N
study.system: USP28 (His-tagged USP28-FL-mammalian) (Homo sapiens)
pIC50: 6.70 to 7.30

molecule: Cc1ccc2c(N)c(C(=O)N[C@H]3CCc4nc(N5CC6(C[C@@H](N)CO6)C5)ccc4C3)sc2n1
study.system: USP28 (His-tagged USP28-FL-mammalian) (Homo sapiens)
pIC50: 6.70 to 7.30

molecule: Cc1ccc2c(N)c(C(=O)N[C@@H]3CCc4cc(N5CCN[C@H](CO)C5)ccc4C3)sc2n1 (single isomer, unassigned)
study.system: USP28 (His-tagged USP28-FL-mammalian) (Homo sapiens)
pIC50: 6.70 to 7.30

molecule: CO[C@H]1[C@H](N)CN(c2ccc3c(c2)OC[C@H](NC(=O)c2sc4nc(C)ccc4c2N)C3)[C@@H]1C
study.system: USP28 (His-tagged USP28-FL-mammalian) (Homo sapiens)
pIC50: 7.30 to 9.00

molecule: Cc1ccc2c(N)c(C(=O)N[C@H]3CCc4nc(N5C[C@H](OC6CCC6)[C@@H](N)C5)ccc4C3)sc2n1
study.system: USP28 (His-tagged USP28-FL-mammalian) (Homo sapiens)
pIC50: 6.70 to 7.30

Below is a list of molecules. For each, state its recorded pIC50.
1. Cc1cnc2c(N)c(C(=O)N[C@H]3COc4cc(N5CC6CCC(C5)N6)c(F)c(F)c4C3)sc2n1
2. Cc1ccc2c(N)c(C(=O)N[C@H]3COc4cc(N5C[C@@H]6C[C@H]5CN6)c(F)c(F)c4C3)sc2n1
3. Cc1ccc2c(N)c(C(=O)N[C@@H]3CCc4nc(N5C[C@H](C(F)F)[C@@H](N)C5)ncc4C3)sc2n1
4. Cc1ccc2c(N)c(C(=O)N[C@H]3COc4cc(N5C[C@H](N)[C@@H](F)C5)ccc4C3)sc2n1

7.30 to 9.00
7.30 to 9.00
< 5.70
7.30 to 9.00

Hi! Can you tell me pIC50 for each of these molecules?
1. Cc1ccc2c(N)c(C(=O)N[C@H]3COc4cc([C@H]5CCNC[C@H]5F)ccc4C3)sc2n1
2. Cc1ccc2c(N)c(C(=O)N[C@H]3COc4cc([C@@H]5CCNC[C@@H]5F)ccc4C3)sc2n1

1. 7.30 to 9.00
2. 7.30 to 9.00

Origin of values: patent US11524966B1
